- system-under-test: Histone acetyltransferase p300 (Homo sapiens)
- protocol-text: Inhibition of recombinant human KAT3B (1287 to 1673 residues) using histone H3 peptide and [3H]-acetyl-coA as substrates at 200 uM incubated for 1 hrs by liquid scintillation counter analysis
Active and inactive are the calls of the source. The rule behind the calls is not given here.

{"columns": ["compound-string", "inhibition"],
 "data": [
  ["CC1=NN(c2ccc(C(=O)O)cc2)C(=O)/C1=C(/C)c1ccc[nH]1", "inactive"],
  ["CC1=NN(c2ccc(C(=O)O)cc2)C(=O)/C1=C\\c1ccc[nH]1", "inactive"],
  ["O=C(O)c1ccc(N2N=C(c3ccccc3)/C(=C/c3ccc[nH]3)C2=O)cc1", "inactive"],
  ["CC1=NN(c2ccc(C(N)=O)cc2)C(=O)/C1=C\\c1ccc[nH]1", "inactive"]
]}
